# assay.system: T1, human PACAP38 (human, not fully specified; C-terminal lysine is amidated; N-terminal or C-terminal biotin in the HTRF and PC-12 cell binding assays)
# T1 construct: synthetic peptide, bought; also called huPACAP (1-38)
# T1 peptide: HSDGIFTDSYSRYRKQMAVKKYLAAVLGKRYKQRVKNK
# protocol.notes: SPR, Ab immobilised
observable: kon (M⁻¹ s⁻¹)
Please reply with the bare figure in M⁻¹ s⁻¹ and do not write the unit itself.

anti-PACAP antibody Ab23 (antibody, human IgG1, kappa, N297A, V domains shown, full-length rabbit/human chimeric antibody; PACAP38 specific) VH: QSVEESGGRLVTPGTPLTLTCTVSGFSLNNYAMSWVRQAPGKGLEWIGIMGVNDITYYASWAKGRFTISKTSTTVDLKMTSLTTEDTATYFCTREIRDDGDSSDKLWGPGTLVTVSS VL: AIKMTQTPSSVSAAVGGTVTINCQASEDIYTNLAWYQQKPGQPPNLLIYDASDLASGVPSRFSGSGDGTQFTLTISAVQCEDAATYYCQGVAWSSNTGYGSAFGGGTEVVVKR: 510000

As a next step, examine the binder that follows.
Sample anti-PACAP antibody Ab13 (antibody, human IgG1, kappa, N297A, V domains shown, full-length rabbit/human chimeric antibody) VH: QSVEESGGRLVTPGTPLTLTCTVSGFSLSSAAMNWVRQAPGKGLEWIGIIDNTAGTYYAPWAKGRFTISKTSSTTVDLKMTSPTTEDTATYFCARGGGEFFIWGPGTLVTVSS VL: AQVLTQTPSSVSAAVGGTVTINCQSSQSVHDGSYLSWYQQKPGQPPNFLIYQASNLASGVPSRFKGSGSGTQFTLTISDLECDDAATYYCAGGYSSNICGFGGGTEVVVKR ; kon observed: 420000
